The following compounds are shown together with reported IC50 values.
biological target: High affinity 3',5'-cyclic-AMP phosphodiesterase 7A (Homo sapiens, UniProt Q13946)
Sequence (Q13946 whole entry): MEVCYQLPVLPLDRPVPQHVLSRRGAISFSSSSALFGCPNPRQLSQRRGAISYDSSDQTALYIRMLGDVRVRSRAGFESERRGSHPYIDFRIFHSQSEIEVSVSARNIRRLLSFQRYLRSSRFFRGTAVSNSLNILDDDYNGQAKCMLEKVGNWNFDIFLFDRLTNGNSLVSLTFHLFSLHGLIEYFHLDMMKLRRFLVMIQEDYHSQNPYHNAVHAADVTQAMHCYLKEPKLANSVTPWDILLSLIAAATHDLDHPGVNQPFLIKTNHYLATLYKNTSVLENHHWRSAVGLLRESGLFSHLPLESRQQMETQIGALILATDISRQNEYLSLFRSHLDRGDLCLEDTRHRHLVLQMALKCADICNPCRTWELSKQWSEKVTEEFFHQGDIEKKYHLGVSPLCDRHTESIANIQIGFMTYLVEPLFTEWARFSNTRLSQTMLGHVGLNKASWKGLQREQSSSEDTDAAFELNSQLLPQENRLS

Reference set, count: 6
CNc1nc(NC2(C#N)CCCCC2)nc(N2CCCC2)n1; > 5 µM
CNc1nc(NC2(C#N)CCCCC2)nc(C2CC2)n1; 0.539 µM
CNc1nc(Nc2ccccc2)nc(NC2(C#N)CCCCC2)n1; > 5 µM
CNc1nc(C#N)nc(NC2(C#N)CCCCC2)n1; > 1 µM
CNc1nc(NC2(C#N)CCCCC2)nc(-n2cccn2)n1; > 5 µM
CNc1nc(NC2(C#N)CCCCC2)nc(-n2cnc3ccccc32)n1; > 1 µM

Input `CNc1nc(NC2CCCC2)nc(NC2(C#N)CCCCC2)n1` . Output IC50: > 5 µM

Input `CNc1nc(NC2(C#N)CCCCC2)nc(SC)n1` . Output IC50: 0.046 µM

Input `CNc1nc(NC2(C#N)CCCCC2)nc(-n2cncn2)n1` . Output IC50: > 5 µM

Input `CNc1nc(NC2(C#N)CCCCC2)nc(N(C)C)n1` . Output IC50: > 5 µM

Input `CNc1nc(NC)nc(NC2(C#N)CCCCC2)n1` . Output IC50: > 1 µM

Input `CNc1nc(NC2(C#N)CCCCC2)nc(-n2cnc(C#N)n2)n1` . Output IC50: > 5 µM

====

test: Intrinsic clearance in rat liver microsomes; type: ADME, Microsome; conditions: read-out: CLH
The following molecules are shown together with reported CLint scaled values.
State the answer as a number, implicitly in mL/min/kg.

CNc1nc(NC(C#N)(C2CC2)C2CC2)nc(-n2cncn2)n1; 3.7
C#CC(CC)(CC)Nc1nc(NC)nc(-n2cncn2)n1; 22
CNc1nc(NC2(C#N)CCCCC2)nc(C2CC2)n1; 276
CNc1nc(NC2(C#N)CCCC(C)C2)nc(-n2cncn2)n1 (mixture of isomers); 96
CNc1nc(NC2(C#N)CCCC2)nc(-n2cncn2)n1; 43

Input CCCC(C#N)(CC)Nc1nc(NC)nc(-n2cncn2)n1 (racemic) . Output CLint scaled: 29

Input `CNc1nc(C#N)nc(NC2(C#N)CCCCC2)n1` . Output CLint scaled: 122

Input `CNc1nc(NC2(C#N)CCCCC2)nc(SC)n1` . Output CLint scaled: 579

Input `CNc1nc(NC2(C#N)CCCCCC2)nc(-n2cncn2)n1` . Output CLint scaled: 276

Input `CNc1nc(NC2(C#N)CCCCC2)nc(-n2cccn2)n1` . Output CLint scaled: 103

Input `CNc1nc(NC2(C#N)CCCCC2)nc(-n2cnc(C#N)n2)n1` . Output CLint scaled: 210

Input `CNc1nc(Cl)nc(NC2(C#N)CCCCC2)n1` . Output CLint scaled: 867

Input `CCC(C#N)(CC)Nc1nc(NC)nc(-n2cncn2)n1` . Output CLint scaled: 26

Input `CNc1nc(NC2(C#N)CCCCC2)nc(-n2ccnc2)n1` . Output CLint scaled: 52

Input `CNc1nc(NC)nc(NC2(C#N)CCCCC2)n1` . Output CLint scaled: 210

Input `CNc1nc(NC2(C#N)CCCCC2)nc(OC)n1` . Output CLint scaled: 196

====

Each entry below carries its measured IC50, system: UniProtKB P27815.
Sequence (P27815 whole entry): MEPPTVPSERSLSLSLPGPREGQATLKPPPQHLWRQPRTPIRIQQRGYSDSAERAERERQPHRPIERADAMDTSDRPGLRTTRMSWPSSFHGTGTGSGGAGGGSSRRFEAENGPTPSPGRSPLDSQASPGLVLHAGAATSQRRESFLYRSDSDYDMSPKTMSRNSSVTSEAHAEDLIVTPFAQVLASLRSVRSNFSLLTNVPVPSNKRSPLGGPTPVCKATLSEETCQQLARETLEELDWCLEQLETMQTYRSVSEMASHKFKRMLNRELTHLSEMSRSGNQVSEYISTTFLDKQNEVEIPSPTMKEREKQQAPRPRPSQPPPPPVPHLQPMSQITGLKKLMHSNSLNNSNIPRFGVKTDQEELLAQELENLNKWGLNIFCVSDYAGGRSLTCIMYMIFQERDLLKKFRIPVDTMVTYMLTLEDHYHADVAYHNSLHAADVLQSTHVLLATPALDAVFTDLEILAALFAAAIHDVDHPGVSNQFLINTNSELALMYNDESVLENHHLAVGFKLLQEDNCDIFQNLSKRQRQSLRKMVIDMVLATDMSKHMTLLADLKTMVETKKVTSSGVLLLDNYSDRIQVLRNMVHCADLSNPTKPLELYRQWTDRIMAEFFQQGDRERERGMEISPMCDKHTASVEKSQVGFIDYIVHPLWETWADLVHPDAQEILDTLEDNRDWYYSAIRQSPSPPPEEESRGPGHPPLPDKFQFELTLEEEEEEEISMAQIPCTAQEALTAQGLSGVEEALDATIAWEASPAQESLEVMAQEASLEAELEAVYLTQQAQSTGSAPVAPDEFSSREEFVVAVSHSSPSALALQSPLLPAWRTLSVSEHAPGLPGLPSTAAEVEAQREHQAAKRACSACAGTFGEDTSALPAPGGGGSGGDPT
State the answer as a number, implicitly in nM.

CNc1nc(NC2(C#N)CCCCC2)nc(-n2cnc(C#N)n2)n1; 4.9

Input `CNc1nc(NC2(C#N)CCCCC2)nc(-n2cnc(C)n2)n1` . Output IC50: 1

Input `CNc1nc(NC2(C#N)CCCCC2)nc(-n2ccnc2)n1` . Output IC50: 6.6

Input `CNc1nc(NC2(C#N)CCCCC2)nc(N2CCCC2)n1` . Output IC50: 38

Input `CNc1nc(NC2(C#N)CCCCC2)nc(-n2cncn2)n1` . Output IC50: 1.7

Input `CNc1nc(NC2(C#N)CCCCC2)nc(SC)n1` . Output IC50: 4.4

Input `CNc1nc(NC2CCCC2)nc(NC2(C#N)CCCCC2)n1` . Output IC50: 59

Input `CNc1nc(NC2(C#N)CCCCC2)nc(N(C)C)n1` . Output IC50: 18
